Reported values of pIC50 for individual entries
Tested on: phosphorylation of Cdc2 Y15 (Wee1 substrate) in A427 cells
procedure-summary: Phosphorylated Cdc2 MSD Electrochemiluminescence Assay
Assay type: cell-based
run-parameters: Homo sapiens, A-427, pCDC2 MSD
pIC50: −log10 of the molar value.

compound: CN1C[C@H]2C[C@@H]1CN2c1ccc(Nc2ncc3c(n2)N(c2cccc(N=S(C)(C)=O)n2)[C@@H]2CC(C)(C)OC[C@]32C)cc1 (single isomer, unassigned) [Example 122]
pIC50: > 7.00

compound: CNCc1cccc(N2c3nc(Nc4ccc(C5(C)COC5)cc4)ncc3[C@]3(C)COC(C)(C)C[C@H]23)n1 (single isomer, unassigned) [Example 82]
pIC50: 6.00 to 7.00

compound: CN1CCC(n2cc(Nc3ncc4c(n3)N(c3cccc(N=S(C)(C)=O)n3)[C@H]3CC(C)(C)OC[C@@]43C)cn2)CC1 (single isomer, unassigned) [Example 101]
pIC50: 5.00 to 6.00

compound: CC1(C)C[C@H]2N(c3cccc(N=S(C)(C)=O)n3)c3nc(Nc4ccc(C(F)F)nn4)ncc3[C@@]2(C)CO1 (single isomer, unassigned) [Example 377]
pIC50: 5.00 to 6.00

compound: CC1(C)C[C@H]2N(c3cccc(N=S(C)(C)=O)n3)c3nc(Nc4ccn(C(F)F)c(=O)c4)ncc3[C@@]2(C)CO1 (single isomer, unassigned) [Example 374]
pIC50: 6.00 to 7.00

compound: CN(C)C(=O)c1ccc(Nc2ncc3c(n2)N(c2cccc(N=S(C)(C)=O)n2)[C@@H]2CC(C)(C)OC[C@]32C)cc1 (single isomer, unassigned) [Example 141]
pIC50: > 7.00

compound: CN1CCN(c2ccc(Nc3ncc4c(n3)N(c3cccc(C(C)(C)O)n3)[C@@H]3CC(C)(C)OC[C@]43C)cc2)CC1 (single isomer, unassigned) [Example 4]
pIC50: 6.00 to 7.00

compound: CN1CCC[C@@H]1c1ccc(Nc2ncc3c(n2)N(c2cccc(N=S(C)(C)=O)n2)[C@@H]2CC(C)(C)OC[C@]32C)cc1 (single isomer, unassigned) [Example 127]
pIC50: > 7.00

compound: CN1CCCC(n2cc(Nc3ncc4c(n3)N(c3cccc(N=S(C)(C)=O)n3)C3CC(C)(C)OCC43C)cn2)C1 (single isomer, unassigned) [Example 202]
pIC50: 6.00 to 7.00

compound: CNCc1cccc(N2c3nc(Nc4ccc([C@H]5CC(=O)N(C)C5)cc4)ncc3[C@@]3(C)COC(C)(C)C[C@@H]23)n1 (single isomer, unassigned) [Example 68]
pIC50: 6.00 to 7.00

compound: CNCc1cccc(N2c3nc(Nc4ccc(C5CCOCC5)nc4)ncc3[C@@]3(C)COC(C)(C)C[C@@H]23)n1 (single isomer, unassigned) [Example 56]
pIC50: 6.00 to 7.00

compound: CNCc1cccc(N2c3nc(Nc4ccc([C@@H]5CC(=O)N(C)C5)cc4)ncc3[C@@]3(C)COC(C)(C)C[C@@H]23)n1 (single isomer, unassigned) [Example 69]
pIC50: > 7.00

compound: CNCc1cccc(N2c3nc(Nc4ccc(C(C)(C)C)cc4)ncc3[C@@]3(C)COC(C)(C)C[C@@H]23)n1 (single isomer, unassigned) [Example 73]
pIC50: 6.00 to 7.00

compound: CN1CCC[C@H]1c1cccc(N2c3nc(Nc4ccn(C5CCOCC5)c(=O)c4)ncc3[C@@]3(C)COC(C)(C)C[C@@H]23)n1 (single isomer, unassigned) [Example 393]
pIC50: 5.00 to 6.00

compound: Cc1cc(Nc2ncc3c(n2)N(c2cccc(N=S(C)(C)=O)n2)[C@@H]2CC(C)(C)OC[C@]32C)ccc1C1CCN(C)CC1 (single isomer, unassigned) [Example 104]
pIC50: > 7.00

compound: CNCc1cccc(N2c3nc(Nc4ccc(N5CCOCC5)c(C)c4)ncc3[C@@]3(C)COC(C)(C)C[C@@H]23)n1 (single isomer, unassigned) [Example 26]
pIC50: 6.00 to 7.00

compound: CNCc1cccc(N2c3nc(Nc4ccc(N5C6CCC5COC6)c(C)c4)ncc3[C@@]3(C)COC(C)(C)C[C@@H]23)n1 (single isomer, unassigned) [Example 85]
pIC50: 6.00 to 7.00

compound: CN1CCC(n2cc(Nc3ncc4c(n3)N(c3cccc(N=S(C)(C)=O)n3)[C@@H]3CC(C)(C)OC[C@]43C)cn2)CC1 (single isomer, unassigned) [Example 102]
pIC50: 6.00 to 7.00

compound: COc1ccc(Nc2ncc3c(n2)N(c2cccc(N=S(C)(C)=O)n2)[C@@H]2CC(C)(C)OC[C@]32C)nn1 (single isomer, unassigned) [Example 372]
pIC50: 6.00 to 7.00

compound: CNCc1cccc(N2c3nc(Nc4ccc(N5CCN(C)CC5)cc4)ncc3[C@@]3(C)COC(C)(C)C[C@@H]23)n1 (single isomer, unassigned) [Example 94]
pIC50: 6.00 to 7.00

compound: CN[C@H]1CCN(c2ccc(Nc3ncc4c(n3)N(c3cccc(N5C(=O)OC[C@@H]5C)n3)[C@@H]3CC(C)(C)OC[C@]43C)cc2)C1 (single isomer, unassigned) [Example 317]
pIC50: 6.00 to 7.00
